Test system: PC12 cells
Experiment: KCN-induced necrosis of PC12 cells, LDH release
Type: cell-based, rat
Conditions: 0.1 nM; KCN-induced necrosis (Table 2)
Method: The rat pheochromocytoma PC12 cell line was propagated in DMEM medium (Beit Haemek, Israel), supplemented with 5% heat-inactivated calf serum, 10% heat-inactivated horse serum, 2 mM L-glutamine, 100 U/ml penicillin and 100 μg/ml streptomycin. […] The amount of LDH released from lysed cells is a sensitive measure of cell death. Necrotic cell death was measured in 96-well plates using Promega CytoTox 96 LDH assay kit. […] Absorbance at 490 nm was measured by ELISA reader (BioTec). […]
Tag: true if measured % protection at indicated concentration 0.1 nM is not below 30%, false if it is.

Take a look at these entries with their results.
>  <SMILES INPUT>
CC(=O)Oc1ccc2nc(-c3cccc(Br)c3)oc(=O)c2c1

>  <MEASURED TARGET>
PC12 cells

>  <CLASS ASSIGNMENT>
false

$$$$
>  <SMILES INPUT>
Cc1ccnc(Nc2nc(-c3cc(C)c(C)cc3C)cs2)c1

>  <MEASURED TARGET>
PC12 cells

>  <CLASS ASSIGNMENT>
false

$$$$
>  <SMILES INPUT>
COc1cc(OC)cc(-c2nc3ccc(Br)cc3c(=O)o2)c1

>  <MEASURED TARGET>
PC12 cells

>  <CLASS ASSIGNMENT>
true

$$$$

Could you please find out whether CCOC(=O)CN1C(=O)c2ccccc2S1(=O)=O has % protection at indicated concentration 0.1 nM that meets 30% or exceeds it?
false

Could you please find out whether O=C(C1CCCC1)N1CCN=C1N1CCCC1 has % protection at indicated concentration 0.1 nM that meets 30% or exceeds it?
true

Could you please find out whether CC(C)C(=O)Nc1ccc(Oc2ccc(NC(=O)C(C)C)cc2)cc1 has % protection at indicated concentration 0.1 nM that meets 30% or exceeds it?
false

---

tested on: PC12 cells; assay: KCN-induced necrosis of PC12 cells, LDH release; format: cell-based, rat; conditions: Rattus norvegicus, PC-12, 5 h, 0.1 μM; KCN, PC12, LDH release (Table 5); read-out: % protection at 0.1 μM
PARAMETER MEASURED: inhibition at 0.1 µM (%)
One number for each entry, in %.

Look over these answered cases.
>  <COMPOUND>
O=C1C(NS(=O)(=O)c2ccc(Cl)s2)CCN1c1ccccc1 (centres unmarked)

>  <NUMERIC RESULT>
49

$$$$
>  <COMPOUND>
CCOC(=O)C1=C(C)N(CC(=O)NCc2ccc(C)cc2)c2ncnn2C1c1ccccc1 (centres unmarked)

>  <NUMERIC RESULT>
42

$$$$
>  <COMPOUND>
O=C(O)c1cccc(S(=O)(=O)N2CCCC2)c1

>  <NUMERIC RESULT>
19

$$$$
>  <COMPOUND>
Cn1c(-c2c(C(C)(C)C)oc3cc(OC(=O)C(C)(C)C)ccc3c2=O)nc2ccccc21

>  <NUMERIC RESULT>
57

$$$$
>  <COMPOUND>
O=C(O)Cn1nnc(-c2ccncc2)n1

>  <NUMERIC RESULT>
80

$$$$
>  <COMPOUND>
CNC(=O)c1n[nH]c2c1CCCCCC2

>  <NUMERIC RESULT>
70

$$$$
>  <COMPOUND>
Cc1ccnc(Nc2nc(-c3cc(C)c(C)cc3C)cs2)c1

>  <NUMERIC RESULT>
46

$$$$

Specify reported inhibition at 0.1 µM for the compound shown: CCN1CCN(C2=NCCN2C(=O)C2CCCC2)CC1
51
